system: 769-P; assay: GI50 of drug in presence of dasatinib; higher = less potent; settings: treatment: drug + dasatinib (fixed dose, not stated); 5 days
Cut-off 0.6 µM on GI50 of drug: below means true (1), at or above means false (0).

Solved entries (count: 5):
| molecule | discrete.label |
| --- | --- |
| COc1cc(CCc2cc(NC(=O)c3ccc(N4C[C@@H](C)N[C@@H](C)C4)cc3)n[nH]2)cc(OC)c1 [AZD4547] + Cc1nc(Nc2ncc(C(=O)Nc3c(C)cccc3Cl)s2)cc(N2CCN(CCO)CC2)n1 | false (0) |
| Cn1cc(-c2ccc3nnc(Sc4ccc5ncccc5c4)n3n2)cn1 [SGX-523] + Cc1nc(Nc2ncc(C(=O)Nc3c(C)cccc3Cl)s2)cc(N2CCN(CCO)CC2)n1 | false (0) |
| Cl.N=C(N)NC(=N)NCCc1ccccc1 [Phenformin hydrochloride] + Cc1nc(Nc2ncc(C(=O)Nc3c(C)cccc3Cl)s2)cc(N2CCN(CCO)CC2)n1 | false (0) |
| CC(=O)Nc1ccc(NC(=S)NC(=O)c2ccc(C(C)(C)C)cc2)cc1 [Tenovin-1] + Cc1nc(Nc2ncc(C(=O)Nc3c(C)cccc3Cl)s2)cc(N2CCN(CCO)CC2)n1 | true (1) |
| Cn1cnc(-c2cc3nccc(Oc4ccc(NC(=S)NC(=O)Cc5ccccc5)cc4F)c3s2)c1 [MGCD-265] + Cc1nc(Nc2ncc(C(=O)Nc3c(C)cccc3Cl)s2)cc(N2CCN(CCO)CC2)n1 | false (0) |

Query: Given the entry Cc1ccc(S(=O)(=O)Nc2nc3ccccc3nc2Nc2ccc3nsnc3c2)cc1 [XL147] + Cc1nc(Nc2ncc(C(=O)Nc3c(C)cccc3Cl)s2)cc(N2CCN(CCO)CC2)n1 , would its reported GI50 of drug be below 0.6 µM?
Reply: false (0)

Query: Below 0.6 µM on GI50 of drug? Entry CN(c1ncccc1CNc1nc(Nc2ccc3c(c2)CC(=O)N3)ncc1C(F)(F)F)S(C)(=O)=O.O=S(=O)(O)c1ccccc1 + Cc1nc(Nc2ncc(C(=O)Nc3c(C)cccc3Cl)s2)cc(N2CCN(CCO)CC2)n1
Reply: false (0)

Query: Dear reviewer, please state whether O=C1C(=O)N(Cc2ccc(Cl)c(Cl)c2)c2ccccc21 [Apoptosis Activator 2] + Cc1nc(Nc2ncc(C(=O)Nc3c(C)cccc3Cl)s2)cc(N2CCN(CCO)CC2)n1 has GI50 of drug strictly beneath 0.6 µM.
Reply: false (0)

Query: In plain terms, does FC(F)c1nc2ccccc2n1-c1nc(N2CCOCC2)nc(N2CCOCC2)n1 [ZSTK474] + Cc1nc(Nc2ncc(C(=O)Nc3c(C)cccc3Cl)s2)cc(N2CCN(CCO)CC2)n1 come in under 0.6 µM for GI50 of drug?
Reply: true (1)

Query: Consider the molecule CC(=O)NCC(=O)N1[C@H]2CC[C@H]1c1cc(Nc3ncc(C(F)(F)F)c(NC4CCC4)n3)ccc12 + Cc1nc(Nc2ncc(C(=O)Nc3c(C)cccc3Cl)s2)cc(N2CCN(CCO)CC2)n1 . Is its GI50 of drug strictly less than 0.6 µM?
Reply: true (1)
